Data provenance: patent US20260217767A1

// pIC50 lookup, one value per entry
Target: RPMI 8866 cells (Homo sapiens, UniProt P13612+P26010)
Sequence (P13612 34-1032): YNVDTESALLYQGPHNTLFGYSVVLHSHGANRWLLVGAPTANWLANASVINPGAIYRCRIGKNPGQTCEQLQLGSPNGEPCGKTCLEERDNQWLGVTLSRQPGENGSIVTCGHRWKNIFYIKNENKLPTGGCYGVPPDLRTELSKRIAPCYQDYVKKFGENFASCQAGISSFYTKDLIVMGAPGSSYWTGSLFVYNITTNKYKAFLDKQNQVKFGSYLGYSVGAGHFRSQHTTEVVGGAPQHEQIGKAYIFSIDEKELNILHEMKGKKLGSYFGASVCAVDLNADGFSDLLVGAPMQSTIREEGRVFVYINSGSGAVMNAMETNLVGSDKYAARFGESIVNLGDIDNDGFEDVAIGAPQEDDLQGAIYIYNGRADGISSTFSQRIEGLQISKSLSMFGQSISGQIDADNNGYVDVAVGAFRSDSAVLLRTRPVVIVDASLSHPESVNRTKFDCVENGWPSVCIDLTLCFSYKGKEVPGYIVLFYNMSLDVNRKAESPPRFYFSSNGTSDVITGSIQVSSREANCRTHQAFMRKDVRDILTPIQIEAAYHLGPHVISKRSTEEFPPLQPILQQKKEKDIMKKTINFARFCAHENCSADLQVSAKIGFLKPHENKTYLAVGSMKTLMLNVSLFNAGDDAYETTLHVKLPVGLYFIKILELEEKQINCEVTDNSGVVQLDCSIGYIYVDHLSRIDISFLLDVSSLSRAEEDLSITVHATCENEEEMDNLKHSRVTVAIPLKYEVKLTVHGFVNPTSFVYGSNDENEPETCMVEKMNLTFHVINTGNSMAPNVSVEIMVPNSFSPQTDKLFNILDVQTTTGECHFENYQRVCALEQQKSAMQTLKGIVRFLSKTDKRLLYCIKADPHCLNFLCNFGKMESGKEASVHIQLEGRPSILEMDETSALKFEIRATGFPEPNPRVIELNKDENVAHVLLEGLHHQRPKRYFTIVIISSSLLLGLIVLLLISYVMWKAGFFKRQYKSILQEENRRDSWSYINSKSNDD
Sequence (P26010 20-798): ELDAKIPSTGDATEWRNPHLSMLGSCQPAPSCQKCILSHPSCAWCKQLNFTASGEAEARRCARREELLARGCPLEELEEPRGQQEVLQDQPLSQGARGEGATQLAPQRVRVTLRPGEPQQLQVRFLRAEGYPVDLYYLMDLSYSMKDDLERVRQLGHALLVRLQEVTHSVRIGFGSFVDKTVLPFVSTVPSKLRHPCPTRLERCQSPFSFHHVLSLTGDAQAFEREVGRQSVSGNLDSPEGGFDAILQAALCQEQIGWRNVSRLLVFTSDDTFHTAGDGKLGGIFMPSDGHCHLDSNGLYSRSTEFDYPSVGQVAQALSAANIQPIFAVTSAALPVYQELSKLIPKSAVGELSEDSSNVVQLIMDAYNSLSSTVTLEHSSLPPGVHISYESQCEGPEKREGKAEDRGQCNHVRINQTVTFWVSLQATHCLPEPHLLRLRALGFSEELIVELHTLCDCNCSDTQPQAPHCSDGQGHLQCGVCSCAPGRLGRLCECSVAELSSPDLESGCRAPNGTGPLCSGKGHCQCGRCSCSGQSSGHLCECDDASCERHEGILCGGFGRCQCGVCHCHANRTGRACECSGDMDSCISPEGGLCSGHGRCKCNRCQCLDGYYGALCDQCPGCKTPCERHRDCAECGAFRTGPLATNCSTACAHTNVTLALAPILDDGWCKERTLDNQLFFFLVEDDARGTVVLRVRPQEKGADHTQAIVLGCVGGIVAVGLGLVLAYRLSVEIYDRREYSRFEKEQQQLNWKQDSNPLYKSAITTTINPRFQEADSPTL
Test: α4β7-MAdCAM Cell Adhesion Assay
Type: cell-based
Conditions: thioether peptide dimers, Table 7; read-out: Cell-Adhesion A4B7
pIC50: −log10 of the molar value. Where a SMILES comes first, the peptide text is derived from it.

(Q) Recorded pIC50 for CC(C)C[C@@H]1NC(=O)[C@H]([C@@H](C)O)NC(=O)[C@H](CC(=O)O)NC(=O)[C@H](CO)NC(=O)[C@H](CCCNC(=N)N)N(C)C(=O)c2ccccc2CSC[C@@H](C(=O)N[C@@H](Cc2c[nH]c3ccccc23)C(=O)N[C@@H](CCC(=O)O)C(=O)N[C@H](CCCCN)C(N)=O)NC1=O [compound 145] (HELM PEPTIDE1{[meR].S.D.T.L.C.W.E.[dK].[am]}|CHEM1{[O=C(c1ccccc1C[*:2])[*:1]]}$PEPTIDE1,CHEM1,1:R1-1:R1|PEPTIDE1,CHEM1,6:R3-1:R2$$$V2.0) , please?
(A) 7.00 to 7.60

(Q) Request: CC(C)C[C@@H]1NC(=O)[C@H]([C@@H](C)O)NC(=O)[C@H](CC(=O)O)NC(=O)[C@H](CO)NC(=O)[C@H](CCCNC(=N)N)N(C)C(=O)c2ccccc2CSC(C)(C)[C@@H](C(=O)N[C@@H](Cc2c[nH]c3ccccc23)C(=O)N[C@H](CCC(=O)O)C(=O)N[C@@H](CO)C(=O)N[C@H](CCCCN)C(N)=O)NC1=O [compound 191] (HELM PEPTIDE1{[meR].S.D.T.L.[Pen].W.[dE].S.[dK].[am]}|CHEM1{[O=C(c1ccccc1C[*:2])[*:1]]}$PEPTIDE1,CHEM1,1:R1-1:R1|PEPTIDE1,CHEM1,6:R3-1:R2$$$V2.0)
(A) > 7.60

(Q) Proceed to CC(C)C[C@@H]1NC(=O)[C@H]([C@@H](C)O)NC(=O)[C@H](CC(=O)O)NC(=O)[C@H](CO)NC(=O)[C@H](CCCNC(=N)N)N(C)C(=O)c2ccccc2CSC(C)(C)[C@@H](C(=O)N[C@@H](Cc2ccc(C(C)(C)C)cc2)C(=O)N[C@@H](CCC(=O)O)CC(=O)N[C@H](CCCCN)C(N)=O)NC1=O [compound 222]
(A) > 7.60

---

Target: RPMI 8866 cells (Homo sapiens, UniProt P13612+P26010)
Assay: α4β7-MAdCAM Cell Adhesion Assay
Type: cell-based
Details: thioether monomer peptides, Table 6; read-out: Cell-Adhesion A4B7
*1 amine or outer side, *2 acyl side, *3 side chain or, on linkers, in order; H or OH if unused. Where a SMILES comes first, the peptide text is derived from it. Bridges are numbered along the chain shown (N, C = ends). [ ]: non-standard residue; d: D form. Phe(4-tBu) = CC(C)(C)c1ccc(C[C@H](N)C(=O)O)cc1; Bip = N[C@@H](Cc1ccc(-c2ccccc2)cc1)C(=O)O; Phe(3-Me) = Cc1cccc(C[C@H](N)C(=O)O)c1; Phe(4-Me) = Cc1ccc(C[C@H](N)C(=O)O)cc1; NMeR = CN[C@@H](CCCNC(=N)N)C(=O)O; β3hE = N[C@@H](CCC(=O)O)CC(=O)O; X1 = O=C(c1ccccc1C[*:2])[*:1]; Pen = CC(C)(S)[C@H](N)C(=O)O
MEASURE NAME: IC50

{"columns": ["MOLECULE", "EXPERIMENTAL TARGET", "IC50"],
 "data": [
  ["Cc1cccc(C[C@H](NC(=O)[C@H]2NC(=O)[C@H](CC(C)C)NC(=O)[C@H]([C@@H](C)O)NC(=O)[C@H](CC(=O)O)NC(=O)[C@H](CO)NC(=O)[C@H](CCCNC(=N)N)N(C)C(=O)c3ccccc3CSC2(C)C)C(=O)N[C@@H](CCC(=O)O)CC(N)=O)c1 [compound 125] ([NMeR]SDTL[Pen][Phe(3-Me)][β3hE]-NH2; linker N-6 via X1)", "RPMI 8866 cells (Homo sapiens, UniProt P13612+P26010)", "< 25 nM"]
]}

(Q) I have this molecule here, CC(C)C[C@@H]1NC(=O)[C@H]([C@@H](C)O)NC(=O)[C@H](CC(=O)O)NC(=O)[C@H](C)NC(=O)[C@H](CCCNC(=N)N)N(C)C(=O)c2ccccc2CSC(C)(C)[C@@H](C(=O)N[C@@H](Cc2ccc(C(C)(C)C)cc2)C(=O)N[C@@H](CCC(=O)O)CC(N)=O)NC1=O [compound 139] ([NMeR]ADTL[Pen][Phe(4-tBu)][β3hE]-NH2; linker N-6 via X1) , and I need its recorded IC50.
(A) 25 to 100 nM

(Q) Follow-up entry: CC(C)C[C@@H]1NC(=O)[C@H]([C@@H](C)O)NC(=O)[C@H](CC(=O)O)NC(=O)[C@H](CO)NC(=O)[C@H](CCCNC(=N)N)N(C)C(=O)c2ccccc2CSC(C)(C)[C@@H](C(=O)N[C@@H](Cc2ccc(-c3ccccc3)cc2)C(=O)N[C@@H](CCC(=O)O)CC(N)=O)NC1=O [compound 133] ([NMeR]SDTL[Pen][Bip][β3hE]-NH2; linker N-6 via X1)
(A) < 25 nM

(Q) Same lookup for Cc1ccc(C[C@H](NC(=O)[C@H]2NC(=O)[C@H](CC(C)C)NC(=O)[C@H]([C@@H](C)O)NC(=O)[C@H](CC(=O)O)NC(=O)[C@H](CO)NC(=O)[C@H](CCCNC(=N)N)N(C)C(=O)c3ccccc3CSC2(C)C)C(=O)N[C@@H](CCC(=O)O)CC(N)=O)cc1 [compound 132] ([NMeR]SDTL[Pen][Phe(4-Me)][β3hE]-NH2; linker N-6 via X1) , please.
(A) < 25 nM

(Q) Another molecule to check: CC(C)C[C@@H]1NC(=O)[C@H]([C@@H](C)O)NC(=O)[C@H](CC(=O)O)NC(=O)[C@H](CO)NC(=O)[C@H](CCCNC(=N)N)N(C)C(=O)c2ccccc2CSC(C)(C)[C@@H](C(=O)N[C@@H](Cc2ccc3ccccc3c2)C(N)=O)NC1=O [compound 116] (HELM PEPTIDE1{[meR].S.D.T.L.[Pen].[O=C([C@H](Cc1ccc2ccccc2c1)N[*:1])[*:2]].[am]}|CHEM1{[O=C(c1ccccc1C[*:2])[*:1]]}$PEPTIDE1,CHEM1,1:R1-1:R1|PEPTIDE1,CHEM1,6:R3-1:R2$$$V2.0)
(A) 25 to 100 nM

(Q) Entry CC(C)C[C@@H]1NC(=O)[C@H]([C@@H](C)O)NC(=O)[C@H](CC(=O)O)NC(=O)[C@H](CO)NC(=O)[C@H](CCCNC(=N)N)N(C)C(=O)c2ccc(cc2)CSC(C)(C)[C@@H](C(=O)N[C@@H](Cc2c[nH]c3ccccc23)C(=O)N[C@H](CCC(=O)O)C(=O)N[C@H](CCCCN)C(N)=O)NC1=O [compound 112] (HELM PEPTIDE1{[meR].S.D.T.L.[Pen].W.[dE].[dK].[am]}|CHEM1{[O=C(c1ccc(C[*:2])cc1)[*:1]]}$PEPTIDE1,CHEM1,1:R1-1:R1|PEPTIDE1,CHEM1,6:R3-1:R2$$$V2.0) please
(A) > 1000 nM

(Q) Would you kindly repeat that for CC(C)C[C@@H]1NC(=O)[C@H]([C@@H](C)O)NC(=O)[C@H](CC(=O)O)NC(=O)[C@H](CO)NC(=O)[C@H](CCCNC(=N)N)N(C)C(=O)c2ccccc2CSC(C)(C)[C@@H](C(=O)N[C@@H](Cc2ccc3ccccc3c2)C(=O)N[C@H](CCC(=O)O)C(N)=O)NC1=O [compound 114] (HELM PEPTIDE1{[meR].S.D.T.L.[Pen].[O=C([C@H](Cc1ccc2ccccc2c1)N[*:1])[*:2]].[dE].[am]}|CHEM1{[O=C(c1ccccc1C[*:2])[*:1]]}$PEPTIDE1,CHEM1,1:R1-1:R1|PEPTIDE1,CHEM1,6:R3-1:R2$$$V2.0) ?
(A) 25 to 100 nM

(Q) Try the molecule CC(C)C[C@@H]1NC(=O)[C@H]([C@@H](C)O)NC(=O)[C@H](CC(=O)O)NC(=O)[C@H](CO)NC(=O)[C@H](CCCNC(=N)N)N(C)C(=O)c2ccccc2CSC(C)(C)[C@@H](C(=O)N[C@@H](Cc2c[nH]c3ccccc23)C(=O)N[C@H](CCC(=O)O)C(=O)N[C@@H](Cc2ccc(O)cc2)C(N)=O)NC1=O [compound 104] (HELM PEPTIDE1{[meR].S.D.T.L.[Pen].W.[dE].Y.[am]}|CHEM1{[O=C(c1ccccc1C[*:2])[*:1]]}$PEPTIDE1,CHEM1,1:R1-1:R1|PEPTIDE1,CHEM1,6:R3-1:R2$$$V2.0)
(A) 25 to 100 nM

(Q) Can you handle CC(C)C[C@@H]1NC(=O)[C@H]([C@@H](C)O)NC(=O)[C@H](CC(=O)O)NC(=O)[C@H](CO)NC(=O)[C@H](CCCNC(=N)N)N(C)C(=O)c2ccccc2CSC(C)(C)[C@@H](C(=O)N[C@@H](Cc2c[nH]c3ccccc23)C(=O)N[C@H](CCC(=O)O)C(=O)N[C@@H](Cc2ccccc2)C(N)=O)NC1=O [compound 101] (HELM PEPTIDE1{[meR].S.D.T.L.[Pen].W.[dE].F.[am]}|CHEM1{[O=C(c1ccccc1C[*:2])[*:1]]}$PEPTIDE1,CHEM1,1:R1-1:R1|PEPTIDE1,CHEM1,6:R3-1:R2$$$V2.0) next?
(A) 100 to 1000 nM
